Just for reference, patent US7220775B2 is where these values come from.

Consider the following Ki values measured on NE transporter (rNE Uptk) (Rattus norvegicus, UniProt Q9WTR4).
One number for each entry, in µM.

O=C1C(=Nc2ccc(Br)cc2)c2ccccc2N1c1ccccc1 [Example 98] | 5.5

Exam item: Looking for the measured Ki of O=C1C(=Nc2cccc(Cl)c2)c2ccccc2N1c1ccccc1 [Example 94] , can you help?
Marked response: 4.88

----------
test system: NE transporter (rNE Uptk); test: Binding at native NE transporter; parameters: species or system rat; settings: Table 8
Would you mind telling me the reported selectivity ratio rNE Uptk (Ki rNE Uptk / Ki hGAL3) of each entry?

O=C1C(=Nc2cccc(Cl)c2)c2ccccc2N1c1ccccc1 | >30
O=C1C(=Nc2ccc(C(F)(F)F)cc2)c2ccccc2N1c1ccccc1 | >100

Exam item: Looking for the measured selectivity ratio rNE Uptk (Ki rNE Uptk / Ki hGAL3) of O=C1C(=Nc2ccc(Cl)cc2)c2ccccc2N1c1ccccc1 , can you help?
Marked response: >30

----------
Target: human GAL3 receptor (Homo sapiens)
Construct: expressed in transfected cells
Sequence (O60755 whole entry): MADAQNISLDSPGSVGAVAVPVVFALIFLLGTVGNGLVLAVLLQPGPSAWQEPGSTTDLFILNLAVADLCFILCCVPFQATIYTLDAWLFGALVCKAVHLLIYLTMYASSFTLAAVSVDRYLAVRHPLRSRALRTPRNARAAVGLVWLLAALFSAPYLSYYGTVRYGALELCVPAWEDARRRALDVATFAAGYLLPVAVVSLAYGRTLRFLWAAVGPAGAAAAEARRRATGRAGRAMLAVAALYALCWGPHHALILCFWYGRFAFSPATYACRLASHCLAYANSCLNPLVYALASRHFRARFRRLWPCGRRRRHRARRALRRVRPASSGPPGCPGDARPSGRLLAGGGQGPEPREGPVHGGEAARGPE
Experiment: Radioligand binding at cloned human GAL3 receptor
Conditions: Table 1, pyrimidines, read-out: Ki (nM) GalR3
Description: The present invention provides for a method of determining the binding affinity of a GAL3 antagonist, wherein the GAL3 antagonist is dissolved in a “suitable solvent”. […] Membranes were harvested from stably transfected LM(tk−) cells. […] Protein concentration was measured by the Bradford method (Bradford, 1976) using Pio-Rad Reagent, with bovine serum albumin as a standard. […]
endpoint-name: Ki
I'd appreciate it if you wrote the number followed by its unit.

Exam item: Looking for the measured Ki of COc1ccc(N2CCN(c3nc(Nc4ccc(C)cc4)cc(N4CCCCC4)n3)CC2)c(OC)c1 , can you help?
Marked response: 270 nM

----------
Target: human GAL2 receptor (Homo sapiens, UniProt O43603)
Construct: expressed in transfected cells
Sequence (O43603 1-387): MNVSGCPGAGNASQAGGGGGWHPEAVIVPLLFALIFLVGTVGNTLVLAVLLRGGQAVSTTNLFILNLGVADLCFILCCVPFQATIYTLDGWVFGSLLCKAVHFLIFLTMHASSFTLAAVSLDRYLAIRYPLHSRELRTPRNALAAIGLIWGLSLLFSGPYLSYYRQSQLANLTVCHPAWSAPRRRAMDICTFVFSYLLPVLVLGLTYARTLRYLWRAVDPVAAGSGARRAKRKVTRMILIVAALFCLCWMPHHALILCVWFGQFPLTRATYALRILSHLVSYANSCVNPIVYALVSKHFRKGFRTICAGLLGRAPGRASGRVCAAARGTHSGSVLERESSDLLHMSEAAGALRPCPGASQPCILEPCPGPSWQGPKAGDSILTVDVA
Test: Radioligand binding at cloned human GAL2 receptor
Settings: Table 1, pyrimidines, read-out: Ki (nM) GalR2
endpoint-name: Ki

Exam item: Give recorded Ki with human GAL2 receptor (Homo sapiens, UniProt O43603) for the following molecule: COc1ccc(N2CCN(c3nc(Nc4ccc(C)cc4)cc(N4CCCCC4)n3)CC2)c(OC)c1 [Example 28]
Marked response: > 5000 nM

----------
Would you mind telling me the reported pKi of each entry?
target: NE transporter (rNE Uptk) (Rattus norvegicus, UniProt Q9WTR4)
One number for each entry, as −log10 of the molar value.

Cc1ccc(Nc2cc(N3CCCCC3)nc(N(C)CCc3ccccc3)n2)cc1 | 4.88
Cc1ccc(Nc2cc(N(C)C)nc(N(C)CCc3c[nH]c4ccccc34)n2)cc1 | 4.55
COc1cccc(Nc2cc(N3CCCCC3)nc(N(C)CCc3c[nH]c4ccccc34)n2)c1 | 4.74

I need pKi for every entry listed below, if you could help.
1. O=C1C(=Nc2ccc(C(F)(F)F)cc2)c2ccccc2N1c1ccccc1
2. O=C1C(=Nc2cccc(C(F)(F)F)c2)c2ccccc2N1c1ccccc1
3. O=C1C(=Nc2ccc(Cl)cc2)c2ccccc2N1c1ccccc1
4. CN(C)c1cc(Nc2ccc(Cl)c(Cl)c2)nc(Nc2ccccc2)n1

Marked response:
[5.21, 4.47, 5.36, 4.34]
